B1: PBXIP1 (parent)
chain: LQQLRARLQGLEADCVRGPDGVCL

Variants of: B1
measurement_protocol: protein stability index of a GFP-peptide fusion (GPS, HEK-293T) (PSI 1-6); higher = more stable;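 further: lentivirally expressed fusions sorted by FACS into six bins by GFP to DsRed ratio, PSI derived from sequencing read proportions per bin multiplied by bin number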
condition_notes: c terminus: a fixed tail appended
quantity_name: protein stability index
Note: the reply should be a number with no unit written.

QUERY: Entry LQQLDARLQGLEADCVRGPDGVCL [R5D] : reported protein stability index = ?
RESULT: 4.08

QUERY: And for LQQLRARLQGLEYDCVRGPDGVCL [A13Y] ?
RESULT: 2.01

QUERY: Here is the next variant: LQQLRARLQGLEADCVRGPDGVQL [C23Q]
RESULT: 2.39

QUERY: For LQQLRARLQGLEADCVRGPDGVCV [L24V] then?
RESULT: 1.79

QUERY: Can you check LQQLRARLQELEADCVRGPDGVCL [G10E] next?
RESULT: 2.64

// next item, protein stability index requested
QUERY: // query protein stability index value for entry LQQLRARLQGLEADCVRKPDGVCL [G18K]
RESULT: 2.27
